- system_under_test: Delta-type opioid receptor (Homo sapiens, UniProt P41143)
- Sequence (P41143 whole entry): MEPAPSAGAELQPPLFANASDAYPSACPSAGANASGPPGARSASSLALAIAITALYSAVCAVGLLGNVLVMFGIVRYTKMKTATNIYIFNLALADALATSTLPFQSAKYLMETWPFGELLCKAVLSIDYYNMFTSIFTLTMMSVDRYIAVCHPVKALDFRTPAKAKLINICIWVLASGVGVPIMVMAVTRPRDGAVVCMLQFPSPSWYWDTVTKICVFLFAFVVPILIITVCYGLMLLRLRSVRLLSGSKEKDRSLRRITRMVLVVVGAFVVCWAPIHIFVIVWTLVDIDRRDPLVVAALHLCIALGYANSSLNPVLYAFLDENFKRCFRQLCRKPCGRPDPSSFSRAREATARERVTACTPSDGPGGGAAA
- procedure_details: Agonist activity at human delta opioid receptor expressed in CHO cell membranes by [35S]GTPgammaS binding assay
- Type: functional
quantity_name: EC50 (µM)
Numeric answer only, unit µM assumed.

{"smiles_data": "O=C(CCc1ccccc1)N1CC[C@]23Cc4nc5ccccc5cc4C[C@@]2(O)[C@H]1Cc1ccc(O)cc13", "system_under_test": "Delta-type opioid receptor (Homo sapiens, UniProt P41143)", "result_value": 0.0104}
{"smiles_data": "O=C(Cc1ccccc1)N1CC[C@]23Cc4nc5ccccc5cc4C[C@@]2(O)[C@H]1Cc1ccc(O)cc13", "system_under_test": "Delta-type opioid receptor (Homo sapiens, UniProt P41143)", "result_value": 0.0144}
{"smiles_data": "O=C(CCc1ccccc1)N1CC[C@]23c4c5ccc(O)c4O[C@H]2c2[nH]c4ccccc4c2C[C@@]3(O)[C@H]1C5", "system_under_test": "Delta-type opioid receptor (Homo sapiens, UniProt P41143)", "result_value": 0.127}

Which EC50 value belongs to O=C(Cc1ccccc1)N1CC[C@]23c4c5ccc(O)c4O[C@H]2c2[nH]c4ccccc4c2C[C@@]3(O)[C@H]1C5 ?
0.132
